- tgt: Carbonic anhydrase 9 (Homo sapiens)
- experimental_details: Inhibition of recombinant human transmembrane carbonic anhydrase 9 pretreated for 15 mins prior to testing measured for 10 to 100 secs by phenol red based stopped-flow CO2 hydration assay
For each entry below, report its Ki value.

Check out these entries, answers already filled in.
[[record]]
compound = "Oc1ccc(-c2cc3cc(O)cc(O)c3[se]2)cc1"
tgt = "Carbonic anhydrase 9 (Homo sapiens)"
assay_result = "37 µM"

[[record]]
compound = "Cc1ccc(S(=O)(=O)N[C@H](C[Se][Se]C[C@H](CC(C)C)NS(=O)(=O)c2ccc(C)cc2)CC(C)C)cc1"
tgt = "Carbonic anhydrase 9 (Homo sapiens)"
assay_result = "29.5 µM"

[[record]]
compound = "Cc1ccc(S(=O)(=O)Nc2ccccc2[Se][Se]c2ccccc2NS(=O)(=O)c2ccc(C)cc2)cc1"
tgt = "Carbonic anhydrase 9 (Homo sapiens)"
assay_result = "8.4 µM"

[[record]]
compound = "COc1ccc(C2C[Se]c3ccc(Cl)cc3N2S(=O)(=O)c2ccc(C)cc2)cc1 (stereo not drawn)"
tgt = "Carbonic anhydrase 9 (Homo sapiens)"
assay_result = "> 100 µM"

[[record]]
compound = "Cc1ccc(S(=O)(=O)N[C@H](C[Se]c2ccccc2)CC(C)C)cc1"
tgt = "Carbonic anhydrase 9 (Homo sapiens)"
assay_result = "> 100 µM"

[[record]]
compound = "Cc1ccc(S(=O)(=O)Nc2cc(C)ccc2[Se][Se]c2ccc(C)cc2NS(=O)(=O)c2ccc(C)cc2)cc1"
tgt = "Carbonic anhydrase 9 (Homo sapiens)"
assay_result = "1.6 µM"

[[record]]
compound = "Cc1ccc([Se][Se]c2ccc(C)cc2N)c(N)c1"
tgt = "Carbonic anhydrase 9 (Homo sapiens)"
assay_result = "> 100 µM"

[[record]]
compound = "Cc1ccc(S(=O)(=O)N[C@H](C[Se]C[C@@H](NS(=O)(=O)c2ccc(C)cc2)C(C)C)C(C)C)cc1"
tgt = "Carbonic anhydrase 9 (Homo sapiens)"
assay_result = "> 100 µM"


Record Ki per entry; entries follow.
1. OC(COCc1ccccc1)C[Se][Se]CC(O)COCc1ccccc1 (stereo not drawn)
2. O=[N+]([O-])c1ccccc1[Se][Se]c1ccccc1[N+](=O)[O-]

result:
1. > 100 µM
2. > 100 µM

Lab note: each compound below needs its Ki filled in.
1. OC(COCc1ccccc1)C[Se]CC(O)COCc1ccccc1 (stereo not drawn)
2. Oc1ccccc1[Se][Se]c1ccccc1O
3. CC(O)C[Se]c1ccccc1 (stereo not drawn)

result:
1: > 100 µM; 2: > 100 µM; 3: > 100 µM

State the recorded Ki for every item in the following list.
1. OC(COCc1ccccc1)C[Se]c1ccccc1 (stereo not drawn)
2. Oc1ccc(-c2cc3c(Cl)c(O)cc(O)c3[se]2)cc1
3. COc1ccc(C2C[Se]c3ccccc3N2S(=O)(=O)c2ccc(C)cc2)cc1 (stereo not drawn)
4. COc1ccc(C(O)C[Se][Se]CC(O)c2ccc(OC)c(O)c2)cc1O (stereo not drawn)
5. Cc1ccc(S(=O)(=O)N2c3ccccc3[Se]C3CCOC32)cc1 (stereo not drawn)
6. O=[Se](O)c1ccccc1
7. COc1ccc(C2C[Se]c3ccc(Cl)cc3N2S(=O)(=O)c2ccccc2[N+](=O)[O-])cc1 (stereo not drawn)
8. Cc1ccc(S(=O)(=O)N[C@H](C[Se][Se]C[C@H](Cc2ccccc2)NS(=O)(=O)c2ccc(C)cc2)Cc2ccccc2)cc1

result:
> 100 µM
22.9 µM
> 100 µM
> 100 µM
> 100 µM
> 100 µM
> 100 µM
> 100 µM

Batch: Ki for all items listed.
1. Oc1ccc(-c2cc3c(Cl)c(O)c(Cl)c(O)c3[se]2)cc1
2. COc1ccc(C2C[Se]c3ccccc3N2S(=O)(=O)c2ccccc2[N+](=O)[O-])cc1 (stereo not drawn)

result:
9.1 µM
> 100 µM
